Target: RanGTP-importin-beta complex (human Ran / KPNB1)
Assay: disruptors of RanGTP/KPNB1 binding – biochemical, FRET, CFP/YFP, cell-free homogeneous, confirmation (AID 2823)
Conditions: CFP-Ran/YFP-importin-beta FRET ratio
Calls of active or inactive are those of the source. The rule behind the calls is not given here.
Outcomes: t for active, f for inactive

- Molecule: "O=C(COC(=O)c1ccc2ccccc2c1)NCCCc1ccccc1"
  Cat: "f"
- Molecule: "NC(=O)c1ccccc1NC(=O)/C=C/c1ccc(Cl)cc1"
  Cat: "f"
- Molecule: "COc1ccc(NC(=O)CN2C(=O)CC(C)S(=O)(=O)c3ccccc32)cc1 (stereo unspecified)"
  Cat: "f"
- Molecule: "COc1ccccc1C(=O)NC(=S)Nc1ccc(N2CCCC2)cc1"
  Cat: "f"
- Molecule: "CCCc1n(CC(O)COCc2ccccc2)c2ccccc2[n+]1C (stereo unspecified)"
  Cat: "f"
- Molecule: "CCN1CCc2c(sc(NC(=O)c3ccc(S(=O)(=O)N4CC(C)OC(C)C4)cc3)c2C(N)=O)C1 (stereo unspecified)"
  Cat: "f"
- Molecule: "O=C(C1CCCCC1)N1CC(=O)N2CCc3ccccc3C2C1 (stereo unspecified)"
  Cat: "f"
- Molecule: "CCC(=O)Nc1c(S(=O)(=O)c2ccccc2)c2nc3ccccc3nc2n1Cc1ccccc1"
  Cat: "t"
- Molecule: "Cc1c(CCC(=O)NC2CC2)c(=O)oc2c(C)c(O)ccc12"
  Cat: "t"
- Molecule: "CNC(=S)Nc1ccc(C(N)=O)cc1"
  Cat: "f"
- Molecule: "CCCn1cnc2cc(NCc3ccc(Br)cc3)ccc21"
  Cat: "f"

---

Target: RanGTP-importin-beta complex (human Ran / KPNB1)
Assay: disruptors of RanGTP/KPNB1 binding – biochemical, FRET, CFP/YFP, cell-free homogeneous, confirmation (AID 2823)
Conditions: CFP-Ran/YFP-importin-beta FRET ratio
Active and inactive are the calls of the source. No rule for the calls is given here.
Outcome codes: active, inactive

- Compound: "CCN1CCN(Cc2c(O)c(Cl)cc3c(C)cc(=O)oc23)CC1"
  Cat: "active"
- Compound: "Cc1cc(NC(=O)c2c(F)c(F)c(F)c(F)c2F)no1"
  Cat: "inactive"
- Compound: "COc1cc(NC(=O)c2cc(-c3cccs3)on2)cc(OC)c1OC"
  Cat: "inactive"
- Compound: "COc1ccc(S(=O)Cc2ccc(C(=O)NC3CC3)o2)cc1 (stereo unspecified)"
  Cat: "inactive"
- Compound: "NS(=O)(=O)c1ccc(CCNC(=O)C(=O)c2c[nH]c3ccccc23)cc1"
  Cat: "inactive"
- Compound: "NC(=S)Cc1nc(-c2ccc(Cl)cc2)cs1"
  Cat: "inactive"
- Compound: "COc1cccc(C2=NOC(C(=O)Nc3cc(C)on3)C2)c1 (stereo unspecified)"
  Cat: "inactive"
- Compound: "CN(C)C=NC(=O)c1cc(C(=O)c2ccc(C(C)(C)C)cc2)c[nH]1"
  Cat: "inactive"
- Compound: "Cc1ccccc1/C=N/Nc1ccnc2cc(Cl)ccc12"
  Cat: "inactive"
- Compound: "OCCNc1c2ccccc2nc2c(F)c(F)c(F)c(F)c12"
  Cat: "active"
- Compound: "Cn1c(N)c(C(=O)COC(=O)C2(c3ccc(F)cc3)CCCC2)c(=O)n(C)c1=O"
  Cat: "inactive"
